Tested on: P. aeruginosa
Assay: Antimicrobial test, broth microdilution MIC
Type: cell-based, Pseudomonas aeruginosa (ATCC 27853)
Details: Pseudomonas aeruginosa, 24 hours, read-out: Minimum inhibitory concentration, P. aeruginosa
Description: This study used standard strains of bacteria known to be resistant to antibiotics. […] The density of the culture in the broth was determined by preparing a bacterial solution with a McFarland density of 0.5. […] It was prepared at concentrations of 1, 2, 4, 8, 16, 32, 64, 128, 256 and 512 µg/mL. […] The microplates were then read in the spectrophotometer at a wavelength of 620 nm. […]

SMILES_RECORD | MEASUREMENT_TARGET | MIC (µg/mL)
CC(=O)c1ccc(-n2cc[n+](CCN3CCCCC3)c2)cc1.Cl.[Cl-] | P. aeruginosa | 200
CC(=O)c1ccc(-n2cc[n+](CCN3CCOCC3)c2)cc1.Cl.[Cl-] | P. aeruginosa | 200
Br.CC(=O)c1ccc(-n2cc[n+](Cc3ccccn3)c2)cc1.[Br-] | P. aeruginosa | 200

* * *

pIC50: −log10 of the molar value.
Let's go through some pIC50 measurements on AChE (Homo sapiens) together.
Sequence (P22303 32-614): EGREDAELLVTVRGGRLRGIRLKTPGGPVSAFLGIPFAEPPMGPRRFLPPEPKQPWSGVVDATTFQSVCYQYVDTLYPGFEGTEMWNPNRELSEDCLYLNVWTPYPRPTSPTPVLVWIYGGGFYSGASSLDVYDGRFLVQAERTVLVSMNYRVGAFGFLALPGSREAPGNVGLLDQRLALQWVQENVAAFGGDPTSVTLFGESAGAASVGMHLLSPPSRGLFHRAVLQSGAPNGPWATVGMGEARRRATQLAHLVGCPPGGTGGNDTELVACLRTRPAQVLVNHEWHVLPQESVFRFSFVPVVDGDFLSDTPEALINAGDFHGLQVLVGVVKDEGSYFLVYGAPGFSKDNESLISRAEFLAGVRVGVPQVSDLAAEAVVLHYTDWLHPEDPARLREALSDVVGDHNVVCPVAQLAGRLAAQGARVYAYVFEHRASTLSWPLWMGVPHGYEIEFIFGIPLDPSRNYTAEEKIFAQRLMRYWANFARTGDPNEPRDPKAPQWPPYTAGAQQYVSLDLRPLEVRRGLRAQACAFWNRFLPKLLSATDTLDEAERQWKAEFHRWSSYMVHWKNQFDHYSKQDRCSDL

COMPOUND | MEASUREMENT_TARGET | pIC50
Cl.O=Cc1ccc(-n2cc[n+](CCN3CCOCC3)c2)cc1.[Cl-] [Compound 2a] | AChE (Homo sapiens) | 6.06
Br.CC(=O)c1ccc(-n2cc[n+](Cc3ccccn3)c2)cc1.[Br-] [Compound 1d] | AChE (Homo sapiens) | 5.98
CC(=O)c1ccc(-n2cc[n+](CCN3CCCCC3)c2)cc1.Cl.[Cl-] [Compound 1b] | AChE (Homo sapiens) | 5.66
CC(=O)c1ccc(-n2cc[n+](CCN3CCCC3)c2)cc1.Cl.[Cl-] [Compound 1c] | AChE (Homo sapiens) | 4.98
Br.O=Cc1ccc(-n2cc[n+](Cc3ccccn3)c2)cc1.[Br-] [Compound 2d] | AChE (Homo sapiens) | 6.09
CC(=O)c1ccc(-n2cc[n+](CCN3CCOCC3)c2)cc1.Cl.[Cl-] [Compound 1a] | AChE (Homo sapiens) | 4.83
Cl.O=Cc1ccc(-n2cc[n+](CCN3CCCCC3)c2)cc1.[Cl-] [Compound 2b] | AChE (Homo sapiens) | 5.99
Cl.O=Cc1ccc(-n2cc[n+](CCN3CCCC3)c2)cc1.[Cl-] [Compound 2c] | AChE (Homo sapiens) | 5.38

* * *

Below, each entry is listed with its recorded MIC.
Test system: P. aeruginosa
Assay: Antimicrobial test, broth microdilution MIC
Assay type: cell-based, Pseudomonas aeruginosa (ATCC 27853)
Details: Pseudomonas aeruginosa, 24 hours, read-out: Minimum inhibitory concentration, P. aeruginosa

COMPOUND | MIC (µg/mL)
Cl.O=Cc1ccc(-n2cc[n+](CCN3CCOCC3)c2)cc1.[Cl-] [Compound 2a] | 200
Cl.O=Cc1ccc(-n2cc[n+](CCN3CCCC3)c2)cc1.[Cl-] [Compound 2c] | 200
Br.O=Cc1ccc(-n2cc[n+](Cc3ccccn3)c2)cc1.[Br-] [Compound 2d] | 200
CC(=O)c1ccc(-n2cc[n+](CCN3CCCC3)c2)cc1.Cl.[Cl-] [Compound 1c] | 25
Cl.O=Cc1ccc(-n2cc[n+](CCN3CCCCC3)c2)cc1.[Cl-] [Compound 2b] | 200
